# system-tested: Zap1 (UniProt P47043)
# Sequence: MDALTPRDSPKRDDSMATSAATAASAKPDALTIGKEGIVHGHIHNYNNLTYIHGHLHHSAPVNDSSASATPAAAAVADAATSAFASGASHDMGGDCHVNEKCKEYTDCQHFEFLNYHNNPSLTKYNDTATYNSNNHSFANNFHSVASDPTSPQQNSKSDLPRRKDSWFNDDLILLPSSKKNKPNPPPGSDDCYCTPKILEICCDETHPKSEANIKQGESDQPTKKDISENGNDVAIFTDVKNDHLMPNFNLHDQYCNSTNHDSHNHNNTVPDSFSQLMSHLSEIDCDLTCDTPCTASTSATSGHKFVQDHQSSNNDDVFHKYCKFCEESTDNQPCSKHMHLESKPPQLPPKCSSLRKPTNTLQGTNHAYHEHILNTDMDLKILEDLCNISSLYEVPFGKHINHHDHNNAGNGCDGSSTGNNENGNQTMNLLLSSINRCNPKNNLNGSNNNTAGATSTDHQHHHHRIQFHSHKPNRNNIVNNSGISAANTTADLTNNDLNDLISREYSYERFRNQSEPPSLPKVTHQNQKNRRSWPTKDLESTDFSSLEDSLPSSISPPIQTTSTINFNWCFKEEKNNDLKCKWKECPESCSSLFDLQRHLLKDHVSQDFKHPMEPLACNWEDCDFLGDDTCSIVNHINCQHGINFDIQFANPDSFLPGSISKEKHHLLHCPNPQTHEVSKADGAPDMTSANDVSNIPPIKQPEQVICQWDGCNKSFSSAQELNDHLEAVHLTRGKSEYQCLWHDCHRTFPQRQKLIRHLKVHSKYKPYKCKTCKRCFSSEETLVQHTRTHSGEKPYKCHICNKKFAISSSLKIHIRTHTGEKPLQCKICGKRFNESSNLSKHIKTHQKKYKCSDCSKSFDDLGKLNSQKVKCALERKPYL
# assay-overview: PBM E-score (8-mer binding enrichment) (E-score (-0.5 to 0.5)); higher = stronger / more preferred TF binding
# experimental-context: protein concentration: 200 nM; construct: GST-full length
In all, about 33,000 sequences were measured (“E-score (-0.5 to 0.5)”: median about -0.021, highest 2% from about 0.32 on). The sample as a whole holds a higher share of the highest values than the screen did.
A collection of sequences and their measured PBM E-score
Give only the figure.

Reference set (3 entries):
| sequence-content | PBM E-score |
| --- | --- |
| TACCTAAA | 0.199 |
| AGCCCCCT | -0.406 |
| ACTCGAGG | 0.0452 |

Continue with the next sequence.
Recorded PBM E-score for AACCTAAA , please?
0.356

---

# system-tested: Zap1 (UniProt P47043)
# Sequence: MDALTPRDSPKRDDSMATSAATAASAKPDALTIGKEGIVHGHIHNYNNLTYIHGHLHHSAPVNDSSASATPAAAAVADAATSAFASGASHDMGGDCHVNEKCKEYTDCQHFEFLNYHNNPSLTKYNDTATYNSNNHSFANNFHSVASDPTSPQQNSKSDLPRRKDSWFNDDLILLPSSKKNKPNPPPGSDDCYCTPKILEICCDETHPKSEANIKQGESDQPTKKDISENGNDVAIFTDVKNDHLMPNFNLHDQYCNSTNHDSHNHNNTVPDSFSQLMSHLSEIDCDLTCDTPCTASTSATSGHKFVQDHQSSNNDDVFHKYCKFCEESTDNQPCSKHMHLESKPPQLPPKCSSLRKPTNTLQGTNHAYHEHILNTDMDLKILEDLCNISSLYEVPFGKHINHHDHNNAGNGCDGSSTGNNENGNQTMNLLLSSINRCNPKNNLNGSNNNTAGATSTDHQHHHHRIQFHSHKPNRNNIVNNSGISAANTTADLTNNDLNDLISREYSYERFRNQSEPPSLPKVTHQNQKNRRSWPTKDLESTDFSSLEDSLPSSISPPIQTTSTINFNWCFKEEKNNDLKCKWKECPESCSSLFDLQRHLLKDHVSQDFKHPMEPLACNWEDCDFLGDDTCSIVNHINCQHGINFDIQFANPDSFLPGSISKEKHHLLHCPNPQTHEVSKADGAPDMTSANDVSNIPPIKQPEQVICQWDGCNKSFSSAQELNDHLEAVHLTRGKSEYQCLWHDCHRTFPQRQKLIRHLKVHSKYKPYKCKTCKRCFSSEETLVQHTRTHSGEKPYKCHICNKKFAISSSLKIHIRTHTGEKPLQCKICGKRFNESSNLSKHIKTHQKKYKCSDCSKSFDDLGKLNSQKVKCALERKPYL
# assay-overview: PBM E-score (8-mer binding enrichment) (E-score (-0.5 to 0.5)); higher = stronger / more preferred TF binding
# experimental-context: protein concentration: 200 nM; construct: GST-full length
In all, about 33,000 sequences were measured (“E-score (-0.5 to 0.5)”: median about -0.021, highest 2% from about 0.32 on). The entries come from a sample that favours the highest values as a whole.
Please mark True if the recorded PBM E-score is equal to or greater than -0.04, and False if it falls below.

Consider the following illustrative entries.
| sequence-content | group |
| --- | --- |
| TACCCGCA | True |
| CGAGCTAA | True |
| GTAGGGAC | False |
| ACCGGTTG | True |
| AGCCGCTC | False |

Note: attention shifts to another entry.
Could you tell me if the measured PBM E-score of CAACCGAA reaches -0.04 or more?
True

---

PBM E-score reference
# system-tested: Zap1 (UniProt P47043)
# Sequence: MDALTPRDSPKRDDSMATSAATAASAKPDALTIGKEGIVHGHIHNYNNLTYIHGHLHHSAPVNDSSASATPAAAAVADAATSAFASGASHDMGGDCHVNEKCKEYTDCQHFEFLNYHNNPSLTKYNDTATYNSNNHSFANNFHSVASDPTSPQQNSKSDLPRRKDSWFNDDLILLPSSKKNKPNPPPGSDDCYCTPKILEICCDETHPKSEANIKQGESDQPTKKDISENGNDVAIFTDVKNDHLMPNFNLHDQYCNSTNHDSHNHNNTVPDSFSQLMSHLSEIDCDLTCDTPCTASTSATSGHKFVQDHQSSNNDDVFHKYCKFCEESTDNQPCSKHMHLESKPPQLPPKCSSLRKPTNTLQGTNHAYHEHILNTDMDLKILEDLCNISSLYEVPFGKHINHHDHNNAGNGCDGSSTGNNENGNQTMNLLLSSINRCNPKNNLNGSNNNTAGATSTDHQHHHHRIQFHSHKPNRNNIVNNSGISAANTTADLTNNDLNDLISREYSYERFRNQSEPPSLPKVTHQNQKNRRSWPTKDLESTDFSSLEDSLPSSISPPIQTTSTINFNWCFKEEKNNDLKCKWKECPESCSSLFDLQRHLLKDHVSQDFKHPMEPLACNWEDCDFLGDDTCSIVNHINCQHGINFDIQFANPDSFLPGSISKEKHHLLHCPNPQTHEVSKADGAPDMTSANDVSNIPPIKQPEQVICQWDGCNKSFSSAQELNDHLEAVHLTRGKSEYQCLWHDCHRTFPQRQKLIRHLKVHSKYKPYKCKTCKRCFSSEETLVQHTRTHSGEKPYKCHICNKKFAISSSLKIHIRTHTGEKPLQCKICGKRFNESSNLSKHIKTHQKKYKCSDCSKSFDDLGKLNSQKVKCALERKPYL
# assay-overview: PBM E-score (8-mer binding enrichment) (E-score (-0.5 to 0.5)); higher = stronger / more preferred TF binding
# experimental-context: protein concentration: 200 nM; construct: GST-full length
The full ranking holds about 33,000 sequences; the median of “E-score (-0.5 to 0.5)” is about -0.021, and the highest 2% start at about 0.32. Only a selection was taken, and the highest values are over-represented in it overall.
Please state the value as a number alone, without comment.

| sequence-content | observation-type | measurement |
| --- | --- | --- |
| CCTAGAGA | PBM E-score | -0.0434 |

Give the measured PBM E-score of CACAGAGA .
-0.0512

Dear colleague, I am looking for the recorded PBM E-score of the following sequence: CAGTTACC
0.208

Which value of PBM E-score has been reported for CGGTTACC in the records?
0.444

---

# system-tested: Zap1 (UniProt P47043)
# Sequence: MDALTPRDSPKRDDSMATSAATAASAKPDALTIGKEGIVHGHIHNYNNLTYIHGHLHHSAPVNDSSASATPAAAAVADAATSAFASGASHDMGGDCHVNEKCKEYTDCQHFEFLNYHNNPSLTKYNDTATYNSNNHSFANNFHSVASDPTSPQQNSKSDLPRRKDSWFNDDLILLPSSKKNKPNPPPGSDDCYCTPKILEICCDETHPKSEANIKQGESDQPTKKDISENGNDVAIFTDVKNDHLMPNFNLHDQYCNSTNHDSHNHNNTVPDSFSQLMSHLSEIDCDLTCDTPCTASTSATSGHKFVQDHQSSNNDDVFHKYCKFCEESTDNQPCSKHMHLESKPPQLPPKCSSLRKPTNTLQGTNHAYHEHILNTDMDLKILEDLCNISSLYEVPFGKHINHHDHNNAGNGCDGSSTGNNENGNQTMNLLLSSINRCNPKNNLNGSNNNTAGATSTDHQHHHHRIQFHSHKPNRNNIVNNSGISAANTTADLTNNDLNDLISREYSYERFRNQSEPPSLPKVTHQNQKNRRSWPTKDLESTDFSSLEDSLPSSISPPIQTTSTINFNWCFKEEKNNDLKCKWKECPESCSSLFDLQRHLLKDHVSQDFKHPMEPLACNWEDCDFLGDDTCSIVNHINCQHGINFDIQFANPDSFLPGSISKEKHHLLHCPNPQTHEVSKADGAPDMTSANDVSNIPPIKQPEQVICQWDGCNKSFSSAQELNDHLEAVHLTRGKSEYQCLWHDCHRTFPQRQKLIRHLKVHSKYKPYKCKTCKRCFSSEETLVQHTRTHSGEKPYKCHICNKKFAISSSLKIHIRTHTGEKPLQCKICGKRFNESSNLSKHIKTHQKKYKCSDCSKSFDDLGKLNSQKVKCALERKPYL
# assay-overview: PBM E-score (8-mer binding enrichment) (E-score (-0.5 to 0.5)); higher = stronger / more preferred TF binding
# experimental-context: protein concentration: 200 nM; construct: GST-full length
Over roughly 33,000 sequences, “E-score (-0.5 to 0.5)” has its median near -0.021; the highest 2% begin near 0.32. What follows is part of a selection rich in the highest values, with near analogues and random picks from the rest.
Use 0.3 as the dividing line for PBM E-score, with the line itself on the criterion met side and lower values as criterion not met.

I'd appreciate it if you could say whether ACCCGTCT has PBM E-score at least equal to 0.3.
criterion not met

Threshold query (PBM E-score >= 0.3) on CCCCTGCG
criterion not met

State whether the measured PBM E-score reaches 0.3, counting equality as reaching it, for GCCCTGCA
criterion not met

Tell me whether PBM E-score is at least 0.3 here: ACTCGTGG
criterion not met

Measured values drawn from the supplement of paper PMC3334620 for this set.
